Assay overview: Aqueous solubility of the compound at pH 2.0 after 4 hrs
Format: physicochemical
Particulars: buffer, pH 2, 4 h
Would you kindly list solubility for each of these molecules?
Give the value, in units of µg/mL, as a plain number.

q: What does the record list as solubility for Cc1cc(/C=C/C#N)cc(C)c1Oc1cc(Nc2ccc(C#N)cc2)c(N)cc1[N+](=O)[O-] ?
a: 0.29

q: What does the record list as solubility for CNC(=O)c1cc(N)c(Nc2ccc(C#N)cc2)cc1Oc1c(C)cc(CCC#N)cc1C ?
a: 44.7

q: What does the record list as solubility for Cc1cc(C#N)cc(C)c1Oc1cc(Nc2ccc(C#N)cc2)c(N)cc1C(F)(F)F ?
a: 0.96

q: What does the record list as solubility for CC(=O)CCc1cc(C)c(Oc2cc(Nc3ccc(C#N)cc3)c(N)cc2C(F)(F)F)c(C)c1 ?
a: 0.28

q: What does the record list as solubility for Cc1cc(CCC#N)cc(C)c1Oc1cc(Nc2ccc(C#N)cc2)c(N)cc1CO ?
a: 89.8

q: What does the record list as solubility for COC(=O)c1cc(N)c(Nc2ccc(C#N)cc2)cc1Oc1c(C)cc(CCC#N)cc1C ?
a: 21.8

q: What does the record list as solubility for Cc1cc(CCC#N)cc(C)c1Oc1cc(Nc2ccc(C#N)cc2)c(N)cc1C(N)=O ?
a: 9.11

q: What does the record list as solubility for Cc1cc(/C=C/C#N)cc(C)c1Oc1cc(Nc2ccc(C#N)cc2)c(N)cc1C(F)(F)F ?
a: 0.42

###

Would you kindly list pEC50 for each of these molecules?
Test system: Human immunodeficiency virus 1
Assay overview: Antiviral activity against multidrug-resistant HIV-1 RTMDR infected in human TZM-bl cells assessed as inhibition of viral replication after 2 days by luciferase reporter gene based luminescence assay
Format: functional, organism-based
Particulars: Human immunodeficiency virus 1, RTMDR, 48 h
In plain terms, pEC50 is the concentration in mol/L turned into minus its base-10 logarithm.

q: What does the record list as pEC50 for COC(=O)c1cc(N)c(Nc2ccc(C#N)cc2)cc1Oc1c(C)cc(CCC#N)cc1C ?
a: 8.39

q: What does the record list as pEC50 for Cc1cc(/C=C/C#N)cc(C)c1Oc1cc(Nc2ccc(C#N)cc2)c(N)cc1CO ?
a: 9.40

q: What does the record list as pEC50 for Cc1cc(CCC#N)cc(C)c1Oc1cc(Nc2ccc(C#N)cc2)c(N)cc1CO ?
a: 8.74

q: What does the record list as pEC50 for Cc1cc(/C=C/C#N)cc(C)c1Oc1cc(Nc2ccc(C#N)cc2)c(N)cc1C(N)=O ?
a: 8.74

q: What does the record list as pEC50 for CNC(=O)c1cc(N)c(Nc2ccc(C#N)cc2)cc1Oc1c(C)cc(CCC#N)cc1C ?
a: 8.10

###

Assay overview: Cytotoxicity against human TZM-bl cells after 4 days by XTT assay
Format: cell-based
Particulars: 96 h
Attribute measured: CC50

q: What does the record list as CC50 for Cc1cc(/C=C/C#N)cc(C)c1Oc1cc(Nc2ccc(C#N)cc2)c(N)cc1S(N)(=O)=O ?
a: > 21.8 µM

q: What does the record list as CC50 for Cc1cc(/C=C/C#N)cc(C)c1Oc1cc(Nc2ccc(C#N)cc2)c(N)cc1C(N)=O ?
a: > 23.6 µM

q: What does the record list as CC50 for Cc1cc(CCC#N)cc(C)c1Oc1cc(Nc2ccc(C#N)cc2)c(N)cc1N ?
a: > 25 µM

q: What does the record list as CC50 for CC(=O)/C=C/c1cc(C)c(Oc2cc(Nc3ccc(C#N)cc3)c(N)cc2C(F)(F)F)c(C)c1 ?
a: > 8.6 µM

q: What does the record list as CC50 for Cc1cc(CCC#N)cc(C)c1Oc1cc(Nc2ccc(C#N)cc2)c(N)cc1C(N)=O ?
a: > 9.4 µM

q: What does the record list as CC50 for Cc1cc(N)cc(C)c1Oc1cc(Nc2ccc(C#N)cc2)c(N)cc1C(F)(F)F ?
a: 15.8 µM

q: What does the record list as CC50 for COC(=O)c1cc(N)c(Nc2ccc(C#N)cc2)cc1Oc1c(C)cc(CCC#N)cc1C ?
a: > 22.7 µM

q: What does the record list as CC50 for Cc1cc(/C=C/C#N)cc(C)c1Oc1cc(Nc2ccc(C#N)cc2)c(N)cc1[N+](=O)[O-] ?
a: > 24.4 µM

q: What does the record list as CC50 for Cc1cc(C#N)cc(C)c1Oc1cc(Nc2ccc(C#N)cc2)c(N)cc1C(F)(F)F ?
a: 13.3 µM

###

Would you kindly list CC50 for each of these compounds?
Assay overview: Cytotoxicity against human TZM-bl cells after 4 days by XTT assay
Type: cell-based
Particulars: 96 h

q: What does the record list as CC50 for Cc1cc(/C=C/C#N)cc(C)c1Oc1cc(Nc2ccc(C#N)cc2)c(N)cc1C(F)(F)F ?
a: 15 µM

q: What does the record list as CC50 for Cc1cc(CCC#N)cc(C)c1Oc1cc(Nc2ccc(C#N)cc2)c(N)cc1C(=O)NN ?
a: > 22.7 µM

q: What does the record list as CC50 for CNC(=O)c1cc2ncn(-c3ccc(C#N)cc3)c2cc1Oc1c(C)cc(CCC#N)cc1C ?
a: > 890 µM

q: What does the record list as CC50 for Cc1cc(CO)cc(C)c1Oc1cc(Nc2ccc(C#N)cc2)c(N)cc1CO ?
a: 15.9 µM

q: What does the record list as CC50 for Cc1cc(CCC#N)cc(C)c1Oc1cc(Nc2ccc(C#N)cc2)c(N)cc1C(=O)O ?
a: 14.3 µM

q: What does the record list as CC50 for Cc1cc(CCC#N)cc(C)c1Oc1cc(Nc2ccc(C#N)cc2)c(N)cc1CO ?
a: > 23.8 µM

q: What does the record list as CC50 for CNC(=O)c1cc(N)c(Nc2ccc(C#N)cc2)cc1Oc1c(C)cc(CCC#N)cc1C ?
a: > 9.1 µM

q: What does the record list as CC50 for CNC(=O)c1cc(N)c(Nc2ccc(C#N)cc2)cc1Oc1c(C)cc(/C=C/C#N)cc1C ?
a: > 9.2 µM

q: What does the record list as CC50 for Cc1cc(CCC#N)cc(C)c1Oc1cc(Nc2ccc(C#N)cc2)c(N)cc1C(F)(F)F ?
a: > 7.1 µM

q: What does the record list as CC50 for CNC(=O)c1cc2ncn(-c3ccc(C#N)cc3)c2cc1Oc1c(C)cc(/C=C/C#N)cc1C ?
a: > 890 µM

q: What does the record list as CC50 for COC(=O)c1cc(N)c(Nc2ccc(C#N)cc2)cc1Oc1c(C)cc(/C=C/C#N)cc1C ?
a: > 22.8 µM

q: What does the record list as CC50 for Cc1cc(CCC#N)cc(C)c1Oc1cc(Nc2ccc(C#N)cc2)c(N)cc1S(N)(=O)=O ?
a: 11.1 µM

q: What does the record list as CC50 for CC(=O)CCc1cc(C)c(Oc2cc(Nc3ccc(C#N)cc3)c(N)cc2C(F)(F)F)c(C)c1 ?
a: 11.1 µM

###

Would you kindly list Ratio EC50 for each of these molecules?
System: Human immunodeficiency virus 1
Assay overview: Ratio of EC50 for HIV-1 harboring reverse transcriptase E138K mutant to EC50 for wild type HIV-1 NL4-3
Format: functional
Response field accepts a number only; no unit should be typed.

q: What does the record list as Ratio EC50 for Cc1cc(/C=C/C#N)cc(C)c1Oc1cc(Nc2ccc(C#N)cc2)c(N)cc1C(N)=O ?
a: 10.3

q: What does the record list as Ratio EC50 for Cc1cc(/C=C/C#N)cc(C)c1Oc1cc(Nc2ccc(C#N)cc2)c(N)cc1CO ?
a: 7.4

q: What does the record list as Ratio EC50 for CNC(=O)c1cc(N)c(Nc2ccc(C#N)cc2)cc1Oc1c(C)cc(CCC#N)cc1C ?
a: 3.7

q: What does the record list as Ratio EC50 for COC(=O)c1cc(N)c(Nc2ccc(C#N)cc2)cc1Oc1c(C)cc(CCC#N)cc1C ?
a: 1.7

q: What does the record list as Ratio EC50 for Cc1cc(CCC#N)cc(C)c1Oc1cc(Nc2ccc(C#N)cc2)c(N)cc1CO ?
a: 7.4

###

Would you kindly list selectivity ratio for each of these compounds?
Assay overview: Selectivity index, ratio of CC50 for human TZM-bl cells to EC50 for HIV-1NL4-3
Format: toxicity, cell-based
Particulars: read-out: Ratio CC50/EC50
Response field accepts a number only; no unit should be typed.

q: What does the record list as selectivity ratio for Cc1cc(/C=C/C#N)cc(C)c1Oc1cc(Nc2ccc(C#N)cc2)c(N)cc1C(=O)O ?
a: 65

q: What does the record list as selectivity ratio for Cc1cc(/C=C/C#N)cc(C)c1Oc1cc(Nc2ccc(C#N)cc2)c(N)cc1C(F)(F)F ?
a: 1600

q: What does the record list as selectivity ratio for Cc1cc(C#N)cc(C)c1Oc1cc(Nc2ccc(C#N)cc2)c(N)cc1C(F)(F)F ?
a: 3510

q: What does the record list as selectivity ratio for Cc1cc(CCC#N)cc(C)c1Oc1cc(Nc2ccc(C#N)cc2)c(N)cc1S(N)(=O)=O ?
a: 29.2

q: What does the record list as selectivity ratio for Cc1cc(CCC#N)cc(C)c1Oc1cc(Nc2ccc(C#N)cc2)c(N)cc1C(=O)O ?
a: 149

q: What does the record list as selectivity ratio for Cc1cc(N)cc(C)c1Oc1cc(Nc2ccc(C#N)cc2)c(N)cc1C(F)(F)F ?
a: 1140

q: What does the record list as selectivity ratio for CC(=O)CCc1cc(C)c(Oc2cc(Nc3ccc(C#N)cc3)c(N)cc2C(F)(F)F)c(C)c1 ?
a: 1620

q: What does the record list as selectivity ratio for Cc1cc(CO)cc(C)c1Oc1cc(Nc2ccc(C#N)cc2)c(N)cc1CO ?
a: 1590

q: What does the record list as selectivity ratio for Cc1cc(/C=C/C#N)cc(C)c1Oc1cc(Nc2ccc(C#N)cc2)c(N)cc1CO ?
a: 30800
